// provenance: PubChem BioAssay AID1159580

Please go through the items and note down their normalized growth.
assay-text: chemical genetic growth profiling, strain panel (AID 1159580);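 note: tested at 20 µM; growth read once vehicle control cultures reached saturation at 30 °C; 1 = growth at the plate median or of vehicle wells; lower values mean less growth of the strain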
setup-conditions: S. cerevisiae deletion strains, growth OD, locus YGL253W, strain hxk2, stronger effect = lower value
The whole screen tested about 5,500 compounds, of which about 2,000 (36%) were called active. Another 18% or so got no clear call; they are omitted. This is one part of the list.
Numbers only.

compound	normalized growth
NC(=O)c1ccc(N)nc1	1.01

Answer for every listed entry: what is its normalized growth? The entries follow.
1. CC(COc1ccccc1)N(CCCl)Cc1ccccc1 (stereo unspecified)
2. CCOC(=O)CCCCCCCCCCCCC1C=CCC1 (stereo unspecified)
3. O=C(/C=C/c1ccc(O)c(O)c1)O[C@@H]1C[C@](O)(C(=O)O)C[C@@H](O)[C@H]1O
4. Oc1ccc(/C=C/c2cc(O)cc(O)c2)cc1

(A)
1: 0.921; 2: 0.998; 3: 0.949; 4: 0.968

Could you tell me normalized growth for each of these compounds? They are listed below.
1. CC12CCCC(O)(C1)C1CC(C)(C)C1CC2 (stereo unspecified)
2. CC1(C)CC2C1CCC1(C)OC1CCC2(C)O (stereo unspecified)
3. CCC(COC(=O)c1cc(OC)c(OC)c(OC)c1)(c1ccccc1)N(C)C (stereo unspecified)
4. c1ccc(-c2ccc(C(c3ccccc3)n3ccnc3)cc2)cc1 (stereo unspecified)
5. CC1(C)O[C@@H]2[C@@H](CO[C@@]3(COS(N)(=O)=O)OC(C)(C)O[C@@H]23)O1
6. CCCCC(CC)CN=C(N)NC(N)=NCCCCCCN=C(N)NC(N)=NCC(CC)CCCC (stereo unspecified)

(A)
1: 0.991; 2: 1.07; 3: 0.994; 4: 0.0596; 5: 1; 6: 0.0547

###

assay-text: chemical genetic growth profiling, strain panel (AID 1159580);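 note: tested at 20 µM; growth read once vehicle control cultures reached saturation at 30 °C; 1 = growth at the plate median or of vehicle wells; lower values mean less growth of the strain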
setup-conditions: S. cerevisiae deletion strains, growth OD, locus YNL248C, strain rpa49, stronger effect = lower value
About 2,000 (36%) of roughly 5,500 compounds were called active. Another 18% or so got no clear call; they are omitted. This is one part of the list.
reported-endpoint: normalized growth
Numbers only.

Consider the following illustrative entries.
molecule	normalized growth
COc1ccc(/C=C/C(=O)c2ccc(O)cc2O)cc1	0.402
O=C1N=C(O)CN1/N=C\c1ccc(-c2ccc([N+](=O)[O-])cc2)o1	0.974
C=CCN1CC[C@]23c4c5ccc(O)c4OC2C(=O)CC[C@@]3(O)[C@H]1C5 (stereo not given in full)	0.948
CC(=O)O[C@H]1CC[C@@]2(C)C(=CCC3C2CC[C@@]2(C)C3CC[C@@H]2C(C)CCCC(C)C)C1 (stereo not given in full)	1
OC1CCCCC1N1CCC(c2ccccc2)CC1 (stereo not given)	1.02
COc1ccc(/C=C/C(=O)c2cc(O)ccc2O)cc1	0.319

Give normalized growth for all molecules that follow.
1. C#C[C@]1(O)CCC2C3CCc4cc(O)ccc4C3CC[C@@]21C (stereo not given in full)
2. O=C(O)c1cc(O)c(O)c(O)c1
3. CC1=C(/C=C/C(C)=C/C=C/C(C)=C\C(=O)O)C(C)(C)CCC1
4. COc1cc(/C=C/C(=O)O)cc(OC)c1OC

(A)
1. 0.955
2. 1.08
3. 1.02
4. 1

###

assay-text: chemical genetic growth profiling, strain panel (AID 1159580);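 note: tested at 20 µM; growth read once vehicle control cultures reached saturation at 30 °C; 1 = growth at the plate median or of vehicle wells; lower values mean less growth of the strain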
setup-conditions: S. cerevisiae deletion strains, growth OD, locus YKL085W, strain MDH1, stronger effect = lower value
Hit rate of the full screen: of about 5,500 compounds, about 2,000 (36%) were called active. Roughly 18% stayed inconclusive and do not appear here. Some of the results follow.
reported-endpoint: normalized growth
Give bare numbers.

Reference set, count: 4
compound	reported-endpoint	assay-result
COc1cc(/C=C/C(=O)O)cc(OC)c1OC	normalized growth	1.01
CO[C@@H]1[C@@H](O[C@@H]2O[C@H](C)[C@@H](O[C@H]3C[C@@](C)(O)[C@H](O)[C@H](C)O3)[C@H](N(C)C)[C@H]2O)[C@@H](CC=O)C[C@@H](C)[C@@H](O[C@H]2CC[C@H](N(C)C)[C@@H](C)O2)/C=C/C=C/C[C@H](C)OC(=O)C[C@H]1O	normalized growth	1.01
CC[C@@H](C(=O)[C@@H](C)[C@@H](O)[C@H](C)[C@@H]1O[C@@H]([C@@H](CC)C(=O)O)CC[C@@H]1C)[C@H]1OC2(C=C[C@@H](O)[C@]3(CC[C@@](C)([C@H]4CC[C@](O)(CC)[C@H](C)O4)O3)O2)[C@H](C)C[C@@H]1C (some centres not stated)	normalized growth	0.812
c1ccc2[nH]c(-c3cscn3)nc2c1	normalized growth	0.996

Respectfully, I request normalized growth for each entry included below.
1. CN(C)CCCO[C@H]1[C@@H](C(O)CO)OC2OC(C)(C)O[C@@H]21 (some centres not stated)
2. CC(COc1ccccc1)N(CCCl)Cc1ccccc1 (configuration not stated)
3. C[C@@H]1CC2C3CCC4=CC(=O)C=C[C@]4(C)[C@@]3(F)[C@@H](O)C[C@]2(C)[C@@]1(O)C(=O)COP(=O)(O)O (some centres not stated)

(A)
1.01
1.01
1.05
